assay: Maximum percentage effect of standard Opioid receptor delta 1 (Cl-DPDPE)
pEC50: −log10 of the molar value.
MEASURE NAME: pEC50

COMPOUND STRUCTURE	ENDPOINT RESULT
CN1CC[C@]23c4c5ccc(O)c4O[C@H]2c2c(c(-c4ccccc4)cn2Cc2ccccc2)C[C@@]3(O)C1C5	7.39

* * *

test: Maximum % effect of standard (DAMGO) was reported against Opioid receptor mu 1
pEC50: −log10 of the molar value.

COMPOUND STRUCTURE	pEC50
Cc1ccc(-c2cn(Cc3ccccc3)c3c2C[C@@]2(O)C4Cc5ccc(O)c6c5[C@@]2(CCN4CC2CC2)[C@H]3O6)cc1	7.47
